Biological target: GluClβ T6′S, R40A (Caenorhabditis elegans, UniProt Q17328, R66A/T283S)
Test: two-electrode voltage clamp, Xenopus laevis oocytes
Conditions: glutamate
REPORTED_PROPERTY: pEC50
Scale explanation: pEC50 corresponds to minus log10 of a concentration expressed in moles per litre.

Looking up N[C@@H](CCC(=O)O)C(=O)O [glutamate] , I found its pEC50 recorded as 2.96

###

Test system: GluClβ with α signal peptide, T6′S, F96TAG F3–Phe
Assay: two-electrode voltage clamp, Xenopus laevis oocytes, nonsense suppression
Format: cell-based, C. elegans
Conditions: glutamate
REPORTED_PROPERTY: EC50 (µM)
Output spec: scalar in µM, unitless text.

Input N[C@@H](CCC(=O)O)C(=O)O [glutamate] . Output EC50: 39

###

Molecular target: GluClβ A17′T (Caenorhabditis elegans, UniProt Q17328, A294T)
Assay: two-electrode voltage clamp, Xenopus laevis oocytes
Details: glutamate
REPORTED_PROPERTY: EC50 (µM)
Answer in µM, number only, no unit symbol.

Record N[C@@H](CCC(=O)O)C(=O)O [glutamate] has GluClβ A17′T (Caenorhabditis elegans, UniProt Q17328, A294T) EC50 equal to 58

###

Target: GluClβ T6′S, T203A (Caenorhabditis elegans, UniProt Q17328, T229A/T283S)
Sequence (Q17328 23-434 T229A/T283S): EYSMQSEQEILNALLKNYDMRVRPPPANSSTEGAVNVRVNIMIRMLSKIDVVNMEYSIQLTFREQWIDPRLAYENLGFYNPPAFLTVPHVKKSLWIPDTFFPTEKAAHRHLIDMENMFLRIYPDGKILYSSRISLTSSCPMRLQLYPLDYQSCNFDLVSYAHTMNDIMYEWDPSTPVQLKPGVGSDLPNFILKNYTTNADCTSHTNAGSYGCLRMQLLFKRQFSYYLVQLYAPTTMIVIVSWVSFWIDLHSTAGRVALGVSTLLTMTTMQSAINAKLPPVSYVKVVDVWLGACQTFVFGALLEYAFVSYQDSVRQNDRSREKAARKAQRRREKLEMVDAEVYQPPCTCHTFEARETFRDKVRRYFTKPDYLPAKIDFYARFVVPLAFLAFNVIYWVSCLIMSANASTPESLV
Assay: two-electrode voltage clamp, Xenopus laevis oocytes
Settings: glutamate
REPORTED_PROPERTY: EC50
Don't forget the unit after the value.

For reference, reported EC50 for N[C@@H](CCC(=O)O)C(=O)O [glutamate] stands at 640 µM

###

Target: GluClβ T10′A (Caenorhabditis elegans, UniProt Q17328, T287A)
Assay: two-electrode voltage clamp, Xenopus laevis oocytes
Settings: glutamate
REPORTED_PROPERTY: EC50 (µM)
Write the value in µM as a bare number.

EC50 for N[C@@H](CCC(=O)O)C(=O)O [glutamate] is 13

###

Target: GluClβ with α signal peptide, T6′S, F96TAG Phe (Caenorhabditis elegans, UniProt Q17328, T283S)
Sequence (Q17328 23-434 T283S): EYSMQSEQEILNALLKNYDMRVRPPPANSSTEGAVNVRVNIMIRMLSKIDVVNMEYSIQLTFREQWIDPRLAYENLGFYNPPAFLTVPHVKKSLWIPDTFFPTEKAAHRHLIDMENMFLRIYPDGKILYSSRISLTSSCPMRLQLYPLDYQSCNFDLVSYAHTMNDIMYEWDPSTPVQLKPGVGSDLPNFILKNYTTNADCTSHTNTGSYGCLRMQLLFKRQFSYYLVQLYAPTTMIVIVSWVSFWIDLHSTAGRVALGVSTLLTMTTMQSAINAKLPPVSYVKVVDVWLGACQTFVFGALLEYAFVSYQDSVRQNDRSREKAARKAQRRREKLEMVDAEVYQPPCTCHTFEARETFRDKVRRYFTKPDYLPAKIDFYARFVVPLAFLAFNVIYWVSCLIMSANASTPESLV
Experiment: two-electrode voltage clamp, Xenopus laevis oocytes, nonsense suppression
Conditions: glutamate
REPORTED_PROPERTY: EC50 (µM)
Respond with the bare value in µM.

For reference, reported EC50 for N[C@@H](CCC(=O)O)C(=O)O [glutamate] stands at 12

###

Biological target: GluClβ T10′S (Caenorhabditis elegans, UniProt Q17328, T287S)
Sequence (Q17328 23-434 T287S): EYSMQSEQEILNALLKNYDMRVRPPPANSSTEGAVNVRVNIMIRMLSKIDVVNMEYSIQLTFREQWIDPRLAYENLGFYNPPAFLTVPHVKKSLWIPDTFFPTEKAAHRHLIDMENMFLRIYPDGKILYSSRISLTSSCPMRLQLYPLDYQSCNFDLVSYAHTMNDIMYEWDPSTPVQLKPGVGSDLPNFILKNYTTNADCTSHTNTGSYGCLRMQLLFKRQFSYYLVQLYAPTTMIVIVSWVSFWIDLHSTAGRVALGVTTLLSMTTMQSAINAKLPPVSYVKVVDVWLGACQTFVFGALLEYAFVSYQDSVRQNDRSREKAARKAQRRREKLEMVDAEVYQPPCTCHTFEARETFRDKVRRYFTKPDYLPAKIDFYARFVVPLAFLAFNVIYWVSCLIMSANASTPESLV
Experiment: two-electrode voltage clamp, Xenopus laevis oocytes
Conditions: glutamate
REPORTED_PROPERTY: EC50 (µM)
Enter your answer as a number in µM; do not include the unit.

Noted EC50 for N[C@@H](CCC(=O)O)C(=O)O [glutamate] , tested on GluClβ T10′S (Caenorhabditis elegans, UniProt Q17328, T287S): 11

###

Molecular target: GluClβ A17′G (Caenorhabditis elegans, UniProt Q17328, A294G)
Test: two-electrode voltage clamp, Xenopus laevis oocytes
Settings: glutamate
REPORTED_PROPERTY: EC50

Sure, the documented EC50 for N[C@@H](CCC(=O)O)C(=O)O [glutamate] is > 5 mM

###

Biological target: GluClβ T6′S, Q174A/Y206F (Caenorhabditis elegans, UniProt Q17328, Q200A/T283S/Y232F)
Sequence (Q17328 23-434 Q200A/Y232F/T283S): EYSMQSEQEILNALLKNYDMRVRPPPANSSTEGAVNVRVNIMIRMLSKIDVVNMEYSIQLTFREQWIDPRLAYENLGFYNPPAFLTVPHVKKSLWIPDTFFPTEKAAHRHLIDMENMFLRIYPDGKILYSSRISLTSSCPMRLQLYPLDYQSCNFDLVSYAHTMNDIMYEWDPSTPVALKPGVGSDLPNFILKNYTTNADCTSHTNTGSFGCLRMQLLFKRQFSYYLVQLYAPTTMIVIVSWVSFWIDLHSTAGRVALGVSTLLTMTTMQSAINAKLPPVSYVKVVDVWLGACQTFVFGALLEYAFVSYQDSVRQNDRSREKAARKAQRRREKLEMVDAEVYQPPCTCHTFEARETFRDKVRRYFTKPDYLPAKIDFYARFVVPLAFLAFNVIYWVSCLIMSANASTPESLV
Test: two-electrode voltage clamp, Xenopus laevis oocytes
Settings: glutamate
REPORTED_PROPERTY: EC50 (µM)
Reply numerically in µM, unit not repeated.

Kindly note: GluClβ T6′S, Q174A/Y206F (Caenorhabditis elegans, UniProt Q17328, Q200A/T283S/Y232F), N[C@@H](CCC(=O)O)C(=O)O [glutamate] , EC50 value reported: 920

###

Target: GluClβ A17′S (Caenorhabditis elegans, UniProt Q17328, A294S)
Assay: two-electrode voltage clamp, Xenopus laevis oocytes
Details: glutamate
REPORTED_PROPERTY: pEC50
On this scale, pEC50 is minus log10 of a concentration expressed in M (mol/L).

Noted for N[C@@H](CCC(=O)O)C(=O)O [glutamate] : its pEC50 reads 3.64

###

Target: GluClβ T6′S, T203A/Y206F (Caenorhabditis elegans, UniProt Q17328, T229A/T283S/Y232F)
Assay: two-electrode voltage clamp, Xenopus laevis oocytes
Details: glutamate
REPORTED_PROPERTY: pEC50
Schema: pEC50 number; meaning minus log10 of the concentration expressed in molar units.

Recorded result, N[C@@H](CCC(=O)O)C(=O)O [glutamate] , pEC50: 3.68

###

Target: GluClβ with α signal peptide, T6′S, Y156F (Caenorhabditis elegans, UniProt Q17328, T283S/Y182F)
Assay: two-electrode voltage clamp, Xenopus laevis oocytes
Settings: glutamate
REPORTED_PROPERTY: EC50 (mM)
Number in mM, nothing else.

Noted for N[C@@H](CCC(=O)O)C(=O)O [glutamate] : its EC50 reads 15

###

System: GluClβ with α signal sequence, T6’S, Y206 F2-Phe (3,5-F2–Phe)
Assay: two-electrode voltage clamp, Xenopus laevis oocytes, nonsense suppression
Type: cell-based, C. elegans
Details: glutamate; no plateau at 100 mM
pEC50: −log10 of the molar value.
REPORTED_PROPERTY: pEC50

Memo: N[C@@H](CCC(=O)O)C(=O)O [glutamate] , reported pEC50: < 1.00
